assay: Clearance in dog at 10 mg/kg, iv; format: ADME, organism-based, Canis lupus familiaris; design: dose 10 mg/kg, route intravenous; conditions: plasma
Entries and their clearance values follow.

[
  {
    "MOLECULE": "COC[C@H](C)NC(=O)c1nc(N2CC[C@@H](NC(=O)c3[nH]c(C)c(Cl)c3Cl)[C@@H](OC)C2)sc1C(=O)O [AZD-5099]",
    "clearance [mL/min/kg]": 0.64
  },
  {
    "MOLECULE": "COCC(COC)NC(=O)c1nc(N2CC[C@@H](NC(=O)c3[nH]c(C)c(Cl)c3Cl)[C@@H](OC)C2)sc1C(=O)O",
    "clearance [mL/min/kg]": 1.6
  },
  {
    "MOLECULE": "CO[C@H]1CN(c2nc(-c3ncnn3C)c(C(=O)O)s2)CC[C@H]1NC(=O)c1[nH]c(C)c(Cl)c1Cl",
    "clearance [mL/min/kg]": 1.6
  },
  {
    "MOLECULE": "Cc1[nH]c(C(=O)NC2CCN(c3ncc(C(=O)O)s3)CC2)c(Cl)c1Cl",
    "clearance [mL/min/kg]": 3
  },
  {
    "MOLECULE": "CO[C@H]1CN(c2nc(-c3cnccn3)c(C(=O)O)s2)CC[C@H]1NC(=O)c1[nH]c(C)c(Cl)c1Cl",
    "clearance [mL/min/kg]": 0.73
  },
  {
    "MOLECULE": "CO[C@H]1CN(c2nc(-c3ncccn3)c(C(=O)O)s2)CC[C@H]1NC(=O)c1[nH]c(C)c(Cl)c1Cl",
    "clearance [mL/min/kg]": 1.9
  },
  {
    "MOLECULE": "COCCNC(=O)c1nc(N2CC[C@@H](NC(=O)c3[nH]c(C)c(Cl)c3Cl)[C@@H](OC)C2)sc1C(=O)O",
    "clearance [mL/min/kg]": 3
  },
  {
    "MOLECULE": "CO[C@H]1CN(c2ncc(C(=O)O)s2)CC[C@H]1NC(=O)c1[nH]c(C)c(Cl)c1Cl",
    "clearance [mL/min/kg]": 26
  }
]

----------
Entries and their MIC values follow.
tested on: Staphylococcus aureus; test: Antimicrobial activity against methicillin, quinolone-resistant Staphylococcus aureus by broth microdilution/CLSI method; format: functional; conditions: Staphylococcus aureus; read-out: MIC
MEASUREMENT LABEL: MIC (µg/mL)

[
  {
    "MOLECULE": "Cc1[nH]c(C(=O)N[C@@H]2CCN(c3ncc(C(=O)O)s3)C[C@@H]2C)c(Cl)c1Cl (racemic)",
    "RESULT UNIT": "µg/mL",
    "OBSERVED RESULT": 4
  },
  {
    "MOLECULE": "Cc1[nH]c(C(=O)N[C@@H]2CCN(c3ncc(C(=O)O)s3)C[C@@H]2CO)c(Cl)c1Cl (racemic)",
    "RESULT UNIT": "µg/mL",
    "OBSERVED RESULT": 64
  },
  {
    "MOLECULE": "CO[C@H]1CN(c2nc(-c3cncnc3)c(C(=O)O)s2)CC[C@H]1NC(=O)c1[nH]c(C)c(Cl)c1Cl",
    "RESULT UNIT": "µg/mL",
    "OBSERVED RESULT": 3.2
  },
  {
    "MOLECULE": "CO[C@H]1CN(c2ncc(C(=O)O)s2)CC[C@H]1NC(=O)c1[nH]c(C)c(Cl)c1Cl (relative stereo)",
    "RESULT UNIT": "µg/mL",
    "OBSERVED RESULT": 1
  }
]

----------
experiment: AUC in methicillin-sensitive Staphylococcus aureus ARC516 infected in neutropenic CD1 mouse thigh model at 30 mg/kg, ip q24; type: ADME, organism-based; parameters: dose 30 mg/kg, route intraperitoneal; conditions: in vivo
MEASUREMENT LABEL: AUC (µg·h/mL)

[
  {
    "COMPOUND": "CO[C@H]1CN(c2nc(-c3ncnn3C)c(C(=O)O)s2)CC[C@H]1NC(=O)c1[nH]c(C)c(Cl)c1Cl",
    "MEASUREMENT LABEL": "AUC",
    "OBSERVED RESULT": 204
  },
  {
    "COMPOUND": "COCC(COC)NC(=O)c1nc(N2CC[C@@H](NC(=O)c3[nH]c(C)c(Cl)c3Cl)[C@@H](OC)C2)sc1C(=O)O",
    "MEASUREMENT LABEL": "AUC",
    "OBSERVED RESULT": 148
  },
  {
    "COMPOUND": "COC[C@H](C)NC(=O)c1nc(N2CC[C@@H](NC(=O)c3[nH]c(C)c(Cl)c3Cl)[C@@H](OC)C2)sc1C(=O)O [AZD-5099]",
    "MEASUREMENT LABEL": "AUC",
    "OBSERVED RESULT": 116
  }
]

----------
tested on: Moraxella catarrhalis; assay: Antimicrobial activity against Moraxella catarrhalis by broth microdilution/CLSI method; format: functional; conditions: Moraxella catarrhalis; read-out: MIC
MEASUREMENT LABEL: MIC (µg/mL)

[
  {
    "COMPOUND": "CO[C@H]1CN(c2nc(C(F)F)c(C(=O)O)s2)CC[C@H]1NC(=O)c1[nH]c(C)c(Cl)c1Cl",
    "MEASUREMENT LABEL": "MIC",
    "OBSERVED RESULT": 0.063
  },
  {
    "COMPOUND": "CO[C@@H]1CN(c2ncc(C(=O)O)s2)CC[C@H]1NC(=O)c1[nH]c(C)c(Cl)c1Cl",
    "MEASUREMENT LABEL": "MIC",
    "OBSERVED RESULT": 2
  },
  {
    "COMPOUND": "COC[C@H]1CN(c2ncc(C(=O)O)s2)CC[C@H]1NC(=O)c1[nH]c(C)c(Cl)c1Cl (racemic)",
    "MEASUREMENT LABEL": "MIC",
    "OBSERVED RESULT": 2
  },
  {
    "COMPOUND": "CO[C@H]1CN(c2nc(C(=O)NCC3(C)OCCO3)c(C(=O)O)s2)CC[C@H]1NC(=O)c1[nH]c(C)c(Cl)c1Cl",
    "MEASUREMENT LABEL": "MIC",
    "OBSERVED RESULT": 0.016
  }
]

----------
assay: Percentage unbound in dog plasma; type: ADME, cell-free, Canis lupus familiaris
Respond with fulfilled for fraction unbound values of 0.1 and above, not fulfilled for values below.

[
  {
    "SMILES STR": "CO[C@H]1CN(c2nc(-c3cnccn3)c(C(=O)O)s2)CC[C@H]1NC(=O)c1[nH]c(C)c(Cl)c1Cl",
    "LABEL": "fulfilled"
  },
  {
    "SMILES STR": "COCCNC(=O)c1nc(N2CC[C@@H](NC(=O)c3[nH]c(C)c(Cl)c3Cl)[C@@H](OC)C2)sc1C(=O)O",
    "LABEL": "not fulfilled"
  },
  {
    "SMILES STR": "CO[C@H]1CN(c2nc(-c3ncnn3C)c(C(=O)O)s2)CC[C@H]1NC(=O)c1[nH]c(C)c(Cl)c1Cl",
    "LABEL": "fulfilled"
  },
  {
    "SMILES STR": "COC[C@H](C)NC(=O)c1nc(N2CC[C@@H](NC(=O)c3[nH]c(C)c(Cl)c3Cl)[C@@H](OC)C2)sc1C(=O)O",
    "LABEL": "not fulfilled"
  },
  {
    "SMILES STR": "CO[C@H]1CN(c2ncc(C(=O)O)s2)CC[C@H]1NC(=O)c1[nH]c(C)c(Cl)c1Cl",
    "LABEL": "fulfilled"
  },
  {
    "SMILES STR": "CO[C@H]1CN(c2nc(-c3ncccn3)c(C(=O)O)s2)CC[C@H]1NC(=O)c1[nH]c(C)c(Cl)c1Cl",
    "LABEL": "fulfilled"
  },
  {
    "SMILES STR": "COCC(COC)NC(=O)c1nc(N2CC[C@@H](NC(=O)c3[nH]c(C)c(Cl)c3Cl)[C@@H](OC)C2)sc1C(=O)O",
    "LABEL": "fulfilled"
  },
  {
    "SMILES STR": "Cc1[nH]c(C(=O)NC2CCN(c3ncc(C(=O)O)s3)CC2)c(Cl)c1Cl",
    "LABEL": "fulfilled"
  }
]

----------
assay: Octanol-phosphate buffer distribution coefficient, log D of the compound at pH 7.4 by shake flask method; format: physicochemical
Respond with 1 for logD values of 1 and above, -1 for values below.

[
  {
    "COMPOUND": "CO[C@H]1CN(c2nc(C(=O)O)c(C)s2)CC[C@H]1NC(=O)c1[nH]c(C)c(Cl)c1Cl",
    "LABEL": 1
  },
  {
    "COMPOUND": "Cc1[nH]c(C(=O)N[C@@H]2CCN(c3ncc(C(=O)O)s3)CC23OCC(C)(C)CO3)c(Cl)c1Cl",
    "LABEL": 1
  },
  {
    "COMPOUND": "CO[C@H]1CN(c2nc(-c3ccccn3)c(C(=O)O)s2)CC[C@H]1NC(=O)c1[nH]c(C)c(Cl)c1Cl",
    "LABEL": 1
  },
  {
    "COMPOUND": "CO[C@H]1CN(c2nc(-c3csc(N)n3)c(C(=O)O)s2)CC[C@H]1NC(=O)c1[nH]c(C)c(Cl)c1Cl",
    "LABEL": 1
  },
  {
    "COMPOUND": "COCC(COC)(COC)NC(=O)c1nc(N2CC[C@@H](NC(=O)c3[nH]c(C)c(Cl)c3Cl)[C@@H](OC)C2)sc1C(=O)O",
    "LABEL": 1
  },
  {
    "COMPOUND": "CO[C@H]1CN(c2nc(C(=O)N(C)C)c(C(=O)O)s2)CC[C@H]1NC(=O)c1[nH]c(C)c(Cl)c1Cl (racemic)",
    "LABEL": -1
  },
  {
    "COMPOUND": "Cc1[nH]c(C(=O)N[C@@H]2CCN(c3ncc(C(=O)O)s3)C[C@@H]2O)c(Cl)c1Cl (racemic)",
    "LABEL": -1
  }
]
